Tested on: PCSK9 gene
Assay: PCSK9 gRNA/SpCas9 editing in primary cynomolgus hepatocytes (Tables 2, 22)
Assay type: cell-based, cynomolgus monkey
Conditions: 100 ng/RNA/mL; SpCas9 mRNA MS002 1:1 by weight
In the oligonucleotide strings, read from the 5' end, every base follows the letter of its sugar. An asterisk marks phosphorothioate; unmarked linkages are phosphodiester. Other units and linkages are bracketed, terminal groups are in braces. A string of capitals states the bases alone. m = 2'-O-methyl; r = 2'-OH (RNA)
measured endpoint: Cyno Primary Hepatocyte Editing % 100 (%)
Give just the numeric value; % need not be written.

GA165: PCSK9 gRNA; protospacer CCGTCAGCTCCAGGCGGTCC (SEQ ID NO: 159) (nucleic acid, sugars from the 5' end m3 r94 m3, linkages s3 o93 s3 (s phosphorothioate, o phosphodiester), T or U not given here) guide: CCGUCAGCUCCAGGCGGUCCGUUUUAGAGCUAGAAAUAGCAAGUUAAAAUAAGGCUAGUCCGUUAUCAACUUGAAAAAGUGGCACCGAGUCGGUGCUUUU: 5.43

Sample GA157: PCSK9 gRNA; protospacer GCCGTCCTCCTCGGAACGCA (SEQ ID NO: 151) (nucleic acid) guide: mG*mC*mC*rGrUrCrCrUrCrCrUrCrGrGrArArCrGrCrArGrUrUrUrUrArGrArGrCrUrArGrArArArUrArGrCrArArGrUrUrArArArArUrArArGrGrCrUrArGrUrCrCrGrUrUrArUrCrArArCrUrUrGrArArArArArGrUrGrGrCrArCrCrGrArGrUrCrGrGrUrGrCrU*mU*mU*mU — what was its Cyno Primary Hepatocyte Editing % 100? 0.78

All figures here come from patent US20250152746A1.
